Provenance of the data: ChEMBL document CHEMBL4340539

Assay: Kinetic solubility of the compound at pH 7.4 PBS up to 200 uM
Assay type: physicochemical
Conditions: read-out: Kinetic_solubility
READOUT_TYPE: solubility kinetic (µM)
Numbers only, in µM.

Solved entries (count: 8):
CPD_SMILES: CC(C)(CS(=O)(=O)c1ccc(-c2ccc(F)cc2)cc1)C(=O)N[C@H](C#N)CC(N)=O
VALUE: 200

CPD_SMILES: Cn1ncc2cccc(-c3ccc(S(=O)(=O)CC(C)(C)C(=O)N[C@H](C#N)CC(N)=O)cc3)c21
VALUE: 187

CPD_SMILES: Cn1ccc2cc(-c3ccc(S(=O)(=O)CC(C)(C)C(=O)N[C@H](C#N)CC(N)=O)cc3)ccc21
VALUE: 176

CPD_SMILES: Cn1ncc2cc(-c3ccc(S(=O)(=O)CC(C)(C)C(=O)N[C@H](C#N)CC(N)=O)cc3)ccc21
VALUE: 200

CPD_SMILES: CC(C)(CS(=O)(=O)c1ccc(-c2ccc(F)cc2F)cc1)C(=O)N[C@H](C#N)CC(N)=O
VALUE: 198

CPD_SMILES: CC(C)(CS(=O)(=O)c1ccc(-c2cncc(Cl)c2)cc1)C(=O)N[C@H](C#N)CC(N)=O
VALUE: 194

CPD_SMILES: CC(C)(CS(=O)(=O)c1ccc(-c2ccc(Cl)cc2)cc1)C(=O)N[C@H](C#N)CC(N)=O
VALUE: 163

CPD_SMILES: Cn1cc2cc(-c3ccc(S(=O)(=O)CC(C)(C)C(=O)N[C@H](C#N)CC(N)=O)cc3)ccc2n1
VALUE: 212

// for each compound in input: emit solubility kinetic
1. CC(C)(CS(=O)(=O)c1ccccc1-c1ccc2ncsc2c1)C(=O)N[C@H](C#N)CC(N)=O
2. CC(C)(C)c1ccc(-c2ccc(S(=O)(=O)N3CCC[C@H]3C(=O)N[C@H](C#N)CC(N)=O)cc2)cc1
3. CC(C)(CS(=O)(=O)c1ccc(-c2cncc(C(F)(F)F)c2)cc1)C(=O)N[C@H](C#N)CC(N)=O
4. CC(C)(CS(=O)(=O)c1ccc(-c2cccc(F)c2)cc1)C(=O)N[C@H](C#N)CC(N)=O

Result:
10
8
190
196
